Values from patent US20260334439A1

The entries below are paired with their reported IC50.
target-under-test: BCAT2 (Homo sapiens, UniProt O15382)
Sequence (O15382 28-392): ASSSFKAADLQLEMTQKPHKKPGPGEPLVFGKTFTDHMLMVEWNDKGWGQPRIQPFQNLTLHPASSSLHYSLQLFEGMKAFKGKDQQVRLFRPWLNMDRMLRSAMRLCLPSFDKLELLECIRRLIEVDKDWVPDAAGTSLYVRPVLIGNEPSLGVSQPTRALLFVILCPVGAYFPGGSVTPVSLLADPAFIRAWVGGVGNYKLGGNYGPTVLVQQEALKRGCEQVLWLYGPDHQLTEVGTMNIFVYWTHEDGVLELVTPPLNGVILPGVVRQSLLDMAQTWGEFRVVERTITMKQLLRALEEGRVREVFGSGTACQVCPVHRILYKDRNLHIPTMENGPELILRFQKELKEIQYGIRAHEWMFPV
assay: BCAT2 in vitro enzyme inhibition assay (hBCAT2, glutamate dehydrogenase/diaphorase/resazurin coupled fluorescence read)
Assay type: biochemical
recorded-conditions: hBCAT2, 1 h preincubation at 25° C., one hour reaction; average where tested multiple times

>  <compound>
O=C1c2cc(Cl)ccc2OCN1[C@H]1CCC[C@@H](n2c(-c3ccccc3F)nc3cnc(-n4nccn4)cc32)[C@@H]1O [Example 214]

>  <target-under-test>
BCAT2 (Homo sapiens, UniProt O15382)

>  <IC50>
< 0.1 µM

$$$$
>  <compound>
CN1C[C@H](N2Cc3ccc(F)cc3C2=O)C[C@H](n2c(-c3ccccc3OCCO)nc3ccc(-c4ncccn4)cc32)C1 [Example 243]

>  <target-under-test>
BCAT2 (Homo sapiens, UniProt O15382)

>  <IC50>
< 0.1 µM

$$$$
>  <compound>
CO[C@@H]1C[C@H](N2Cc3ccc(F)cc3C2=O)C[C@H](n2c(-c3ccccc3F)nc3cnc(-c4nc[nH]n4)cc32)C1 [Example 195]

>  <target-under-test>
BCAT2 (Homo sapiens, UniProt O15382)

>  <IC50>
< 0.1 µM

$$$$
>  <compound>
CN1C[C@H](NC(=O)c2cc(F)ccn2)C[C@H](n2c(-c3ccccc3OCCO)nc3ccc(-c4ncccn4)cc32)C1 [Example 236]

>  <target-under-test>
BCAT2 (Homo sapiens, UniProt O15382)

>  <IC50>
0.1 to 0.5 µM

$$$$
>  <compound>
CO[C@H]1C[C@H](NC(=O)c2cc(F)ccn2)C[C@H](n2c(-c3ccccc3OCCO)nc3ccc(-c4ncco4)cc32)C1 [Example 223]

>  <target-under-test>
BCAT2 (Homo sapiens, UniProt O15382)

>  <IC50>
0.1 to 0.5 µM

$$$$

Then this compound:
Using known records, supply IC50 for N#Cc1ccccc1-c1nc2cnc(-c3nc[nH]n3)cc2n1[C@@H]1CCC[C@H](NC(=O)c2cc(Cl)ccn2)C1 [Example 45]
< 0.1 µM

====

target-under-test: UniProtKB O15382
assay: BCAT2 cell inhibition using engineered A549 cells (MUT KO, BCAT1 KO; 13C6-KMV formation by LC-MS/MS)
Format: cell-based
Set-up: expressed endogenous BCAT2; endogenous in cells; host or cells: A549 cells, MUT knockout and BCAT1 knockout
pIC50: −log10 of the molar value.
The entries below are paired with their reported pIC50.

Worked cases, answers included:
>  <compound>
O=C(N[C@H]1CCC[C@@H](n2c(-c3ccccc3F)nc3cnc(-c4nc[nH]n4)cc32)C1)c1cc(F)ccc1F [Example 58]

>  <measurement-kind>
pIC50

>  <result>
> 7.00

$$$$
>  <compound>
O=C(N[C@H]1CCC[C@@H](n2c(-c3ccccc3F)nc3cnc(-c4nc[nH]n4)cc32)[C@@H]1O)c1cc(F)ccc1F [Example 120]

>  <measurement-kind>
pIC50

>  <result>
> 7.00

$$$$
>  <compound>
O=C1c2cc(F)ccc2CN1[C@H]1CCC[C@@H](n2c(-c3c(O)cccc3F)nc3cnc(-c4nc[nH]n4)cc32)C1 [Example 179]

>  <measurement-kind>
pIC50

>  <result>
> 7.00

$$$$
>  <compound>
O=C(N[C@H]1CCC[C@@H](n2c(-c3ccccc3F)nc3ccc(-c4nc[nH]n4)c(F)c32)C1)c1cc(Cl)ccn1 [Example 230]

>  <measurement-kind>
pIC50

>  <result>
> 7.00

$$$$
>  <compound>
Cc1coc(-c2cc3c(cn2)nc(-c2ccccc2C#N)n3[C@@H]2CCC[C@H](NC(=O)c3cc(F)ccc3F)C2)n1 [Example 93]

>  <measurement-kind>
pIC50

>  <result>
6.30 to 7.00

$$$$
>  <compound>
N#Cc1ccccc1-c1nc2ccc(-c3ncccn3)cc2n1[C@@H]1CCC[C@H](N2Cc3ccc(F)cc3C2=O)C1 [Example 239]

>  <measurement-kind>
pIC50

>  <result>
> 7.00

$$$$

Answer with pIC50 of CN1C[C@H](NC(=O)c2cc(F)ccc2F)C[C@H](n2c(-c3ccccc3F)nc3cnc(-c4nc[nH]n4)cc32)C1 [Example 153] measured for UniProtKB O15382.
6.30 to 7.00
